Normalized Binding Signal, 300 nM for assorted binders
TGT: T1, recombinant human Tie2 extracellular domain (human, UniProt Q02763 23-748)
T1 construct: whole entry named; also called Recombinant human Tie2 ECD; hu Tie2
ASSAY COMMENT: SPR, IgG captured, 37C

{"columns": ["BINDER", "Normalized Binding Signal, 300 nM"],
 "data": [
  ["Tie2.1.M100cP (antibody, IgG1, name in Kabat numbering, V domains shown, hIgG1) VH: EVQLVESGGGLVQPGGSLRLSCAASGFTFSNTDISWVRQAPGKGLEWVGRISPSDGNTYYADSVKGRFTISADTSKNTAYLQMNSLRAEDTAVYYCARRTRWASWAPDYWGQGTLVTVSS VL: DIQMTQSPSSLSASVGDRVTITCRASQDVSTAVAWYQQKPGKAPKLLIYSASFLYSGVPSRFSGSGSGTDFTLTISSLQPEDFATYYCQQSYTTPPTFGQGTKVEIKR", 0.02],
  ["Tie2.1.M100cR (antibody, IgG1, name in Kabat numbering, V domains shown, hIgG1) VH: EVQLVESGGGLVQPGGSLRLSCAASGFTFSNTDISWVRQAPGKGLEWVGRISPSDGNTYYADSVKGRFTISADTSKNTAYLQMNSLRAEDTAVYYCARRTRWASWARDYWGQGTLVTVSS VL: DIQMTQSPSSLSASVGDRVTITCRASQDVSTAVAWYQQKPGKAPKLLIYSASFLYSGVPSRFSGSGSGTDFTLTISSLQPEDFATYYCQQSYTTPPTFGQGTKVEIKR", 0.06]
]}
